Hi there, I'd appreciate the recorded pKd for every entry that follows.
subject_of_test: T1, HLA-G dimer (signal peptide-b2m-HLA-G-6xHis antigen of Example 1, dimer fraction) (human)
T1 construct: also called HLA-G multimers
protocol_summary: SPR, HLA-G dimer
As a rule, pKd stands for the negative log10 of the concentration, concentration in M.

Prompt: What does the record list as pKd for Anti-HLA-G antibody 3 (antibody, IgG1, V domains shown) VH: EVQLLESGGGLVQPGGSLRLSCAASGFTFSDYSMSWVRQAPGKGLEWVSAISPDRSLEYYADSVKGRFTISRDNSKNTLYLQMNSLRAEDTAVYYCAKGPRHLTNNIFDYWGQGTLVTVSS VL: QFVLTQPPSVSAAPGQKVTISCSGSSSNIGHSYVSWYQQLPGTAPKLLIYGNIHRPSGVPDRFSGSTSGTSASLAITGLQADDEADYYCGVWDSSLSAVVFGGGTKLTVL ?
Response: 8.40

Prompt: Recorded pKd for Anti-HLA-G antibody 1 (antibody, V domains shown) VH: EVQLLESGGGLVQPGGSLRLSCAASGFTFSDYAMSWVRQAPGKGLEWVSVISHDGDRVYYADSVKGRFTISRDNSKNTLYLQMNSLRAEDTAVYYCAKGPRRIANAIFDYWGQGTLVTVSS VL: QLVLTQPPSVSGAPGQKVTISCSGSSSNIGHSYVSWYQQLPGTAPKLLIYGDNNRPSGVPDRFSGSKSGTSASLAITGLQAEDEADYYCQSYDSSLSGYVFGTGTKVTVL , please?
Response: 8.95

Prompt: Record request: pKd value, item Anti-HLA-G antibody 2 (antibody, IgG1, V domains shown) VH: EVQLLESGGGLVQPGGSLRLSCAASGFTFSDYAMSWVRQAPGKGLEWVSVISHDGGSIYYADSVKGRFTISRDNSKNTLYLQMNSLRAEDTAVYYCAKGPRRIANAIFDYWGQGTLVTVSS VL: QFVLTQPPSVSAAPGQKVTISCSGSNSNIGNSYVSWYQQVPGAAPRLLIYGSTNRPSGVPDRFSGSKSGTSASLAITGLQAEDEADYYCQSYDSSLSGYVFGTGTKVTVL
Response: 9.08

Prompt: Please look up its pKd: Anti-HLA-G antibody 4 (antibody, IgG1, V domains shown) VH: EVQLLESGGGLVQPGGSLRLSCAASGFTFSDYSMSWVRQAPGKGLEWVSAISPDSGSKYYADSVKGRFTISRDNSKNTLYLQMNSLRAEDTAVYYCAKGPRHLTNNIFDYWGQGTLVTVSS VL: QSVLTQPPSASGTPGQRVTISCTGSSSNIGSNYVSWYQQLPGTAPKLLIYADSNRPSGVPDRFSGSKSGTSASLAISGLRSEDEADYYCASWDYSLSGYVFGGGTKLTVL
Response: 8.31
